test system: T. cruzi NINOA (MHOM/MX/1994/NINOA) strain epimastigotes; assay: Trypanocidal activity, T. cruzi epimastigotes, NINOA strain (resazurin); format: cell-based, Trypanosoma cruzi; settings: 48 h
Observable: IC50 T. cruzi NINOA

Some solved entries appear below for comparison.
O=C(N/N=C/c1ccc2c(c1)OCCO2)c1ccc(O)cc1 :: loss of the activity
COc1ccccc1/C=N/NC(=O)c1ccc(O)cc1 :: inactivity
O=C(N/N=C/c1cc2c(cc1[N+](=O)[O-])OCO2)c1ccc(O)cc1 :: loss of the activity
Cn1cccc1/C=N/NC(=O)c1ccc(O)cc1 :: inactivity

# get_value(readout='IC50 T. cruzi NINOA', item= O=C(N/N=C/c1ccc2ccccc2c1)c1ccc(O)cc1 )
loss of the activity
